meta.source: patent US4064252A

Kindly supply the reported inhibition in vivo at 20 mg/kg/day values for the records listed here.
Tested on: serum triglyceride
Assay: Blood lipid lowering in 8 week-old male rats having normal serum lipid content: serum triglyceride
Format: in vivo, rat
Settings: Rattus norvegicus, po, 84 h, Table 1; 20 mg/kg/day oral, 3.5 days; vs non-treated control; read-out: % decrease of serum triglyceride
Answers are plain numbers, in %.

Look up inhibition in vivo at 20 mg/kg/day for the entries below, preserving their order.
1. COC(=O)CN(CC(O)COc1ccccc1Cl)c1ccccc1 (centres unmarked)
2. CCOC(=O)C(C)(C)Oc1ccc(Cl)cc1 [clofibrate, reference compound]
3. COC(=O)CN(CC(O)COc1ccc(Cl)cc1)c1ccccc1 (centres unmarked)
4. COC(=O)CN(CC(O)COc1ccc(C(C)(C)C)cc1)c1ccccc1 (centres unmarked)
5. CCCOC(=O)CN(CC(O)COc1ccc(Cl)cc1)c1ccccc1 (centres unmarked)

[65.4, 36.3, 54.4, 54.5, 49.6]

====

Kindly supply the reported inhibition ratio (hypotriglyceridemic effect) values for the records listed here.
Test system: blood triglyceride
Experiment: Blood triglyceride lowering in carbohydrate (fructose) induced hypertriglyceridemia of fructose loaded 9 week-old male rats
Assay type: in vivo, rat
Conditions: 30 mg/kg/day oral, 3 days; vs fructose loaded control
Answers are plain numbers, in %.

Here are 3 molecules together with their reported answers.
CCCOC(=O)CN(CC(O)COc1ccc(Cl)cc1)c1ccccc1 (stereo not shown): 67.6
COC(=O)CN(CC(O)COc1ccc(Cl)cc1)c1ccccc1 (stereo not shown): 69.9
CCCCOC(=O)CN(CC(O)COc1ccc(Cl)cc1)c1ccccc1 (stereo not shown): 61.5

Could you now consider this next molecule?
Please report inhibition ratio (hypotriglyceridemic effect) for the following molecule: CCOC(=O)C(C)(C)Oc1ccc(Cl)cc1 [clofibrate, reference compound] -2.3

====

Test system: blood cholesterol
Assay: Blood cholesterol lowering in thiouracil induced hypercholesterolemia of thiouracil loaded 9 week-old male rats
Format: in vivo, rat
Conditions: 10 mg/kg/day oral, 4 days; vs thiouracil loaded control
Kindly supply the reported inhibition ratio (hypocholesterolemic effect) values for the records listed here.
Give bare numbers, in %.

COC(=O)CN(CC(O)COc1ccc(Cl)cc1)c1ccccc1 (stereo not shown) [Compound 4]: 51.9
CCCOC(=O)CN(CC(O)COc1ccc(Cl)cc1)c1ccccc1 (stereo not shown) [Compound 6]: 58.4
CCOC(=O)CN(CC(O)COc1ccc(Cl)cc1)c1ccccc1 (stereo not shown) [Compound 5]: 49.9

Could you now consider this next compound?
Please report inhibition ratio (hypocholesterolemic effect) for the following compound: CCCCOC(=O)CN(CC(O)COc1ccc(Cl)cc1)c1ccccc1 (stereo not shown) [Compound 10] 52.6

====

System: serum triglyceride
Assay: Blood lipid lowering in 8 week-old male rats having normal serum lipid content: serum triglyceride
Assay type: in vivo, rat
Conditions: Rattus norvegicus, po, 84 h, Table 1; 100 mg/kg/day oral, 3.5 days; vs non-treated control; read-out: % decrease of serum triglyceride
Experimental: 1. Blood lipid lowering activities in 8 week-old male rats having normal serum lipid content. The values shown in Table 1 indicate the concentration changes of serum cholesterol and serum triglycride after the treatment with the shown various doses/day for 3.5 days. […] Serum cholesterol concentration was determined by the method of Levine and Zak, and triglyceride by the method of Kassler and Laderer by means of autoanalyzer. […]
Label satisfied when inhibition in vivo at 100 mg/kg/day >= 60%; otherwise not satisfied.

Please review the following examples before continuing.
NC(=O)CN(CC(O)COc1ccc(Cl)cc1)c1ccccc1 (centres unmarked): not satisfied
CCCOC(=O)CN(CC(O)COc1ccc(Cl)cc1)c1ccccc1 (centres unmarked): satisfied
COC(=O)CN(CC(O)COc1ccccc1Cl)c1ccccc1 (centres unmarked): satisfied
O=C(CN(CC(O)COc1ccc(Cl)cc1)c1ccccc1)NCc1ccccc1 (centres unmarked): not satisfied
CCN(CC)C(=O)CN(CC(O)COc1ccc(Cl)cc1)c1ccccc1 (centres unmarked): not satisfied

Kindly review the next compound as well.
Check if inhibition in vivo at 100 mg/kg/day >= 60% (inclusive). Item: CCOC(=O)C(C)(C)Oc1ccc(Cl)cc1 [clofibrate, reference compound] not satisfied

====

System: blood cholesterol
Test: Blood cholesterol lowering in thiouracil induced hypercholesterolemia of thiouracil loaded 9 week-old male rats
Type: in vivo, rat
Conditions: 100 mg/kg/day oral, 4 days; vs thiouracil loaded control
Readout: inhibition ratio (hypocholesterolemic effect) (%)
Numbers only, in %.

Here are 3 compounds together with their reported answers.
CCOC(=O)CN(CC(O)COc1ccc(Cl)cc1)c1ccccc1 (stereo not shown): 100.7
CCCOC(=O)CN(CC(O)COc1ccc(Cl)cc1)c1ccccc1 (stereo not shown): 94.9
CCCCOC(=O)CN(CC(O)COc1ccc(Cl)cc1)c1ccccc1 (stereo not shown): 94.9

Could you now consider this next compound?
Under blood cholesterol: report inhibition ratio (hypocholesterolemic effect) of COC(=O)CN(CC(O)COc1ccc(Cl)cc1)c1ccccc1 (stereo not shown) . 85.5

====

Tested on: serum cholesterol
Experiment: Blood lipid lowering in 8 week-old male rats having normal serum lipid content: serum cholesterol
Format: in vivo
Settings: Rattus norvegicus, po, 84 h, Table 1; 100 mg/kg/day oral, 3.5 days; vs non-treated control; read-out: % decrease of serum cholesterol
Label t when inhibition in vivo at 100 mg/kg/day >= 20%; otherwise f.

Please review the following examples before continuing.
COC(=O)CN(CC(O)COc1ccccc1Cl)c1ccccc1 (stereo not drawn): t
O=C(CN(CC(O)COc1ccc(Cl)cc1)c1ccccc1)NCc1ccccc1 (stereo not drawn): f
CCOC(=O)C(C)(C)Oc1ccc(Cl)cc1 [clofibrate, reference compound]: t
COC(=O)CN(CC(O)COc1ccc(C(C)(C)C)cc1)c1ccccc1 (stereo not drawn): f
O=C(O)CN(CC(O)COc1ccc(Cl)cc1)c1ccccc1 (stereo not drawn): t

Check if inhibition in vivo at 100 mg/kg/day >= 20% (inclusive). Item: NC(=O)CN(CC(O)COc1ccc(Cl)cc1)c1ccccc1 (stereo not drawn) t

Check if inhibition in vivo at 100 mg/kg/day >= 20% (inclusive). Item: CCCOC(=O)CN(CC(O)COc1ccc(Cl)cc1)c1ccccc1 (stereo not drawn) t

Check if inhibition in vivo at 100 mg/kg/day >= 20% (inclusive). Item: COC(=O)CN(CC(O)COc1ccc(Cl)cc1)c1ccccc1 (stereo not drawn) t

====

Tested on: serum cholesterol
Assay: Blood lipid lowering in 8 week-old male rats having normal serum lipid content: serum cholesterol
Assay type: in vivo
Settings: Rattus norvegicus, po, 84 h, Table 1; 20 mg/kg/day oral, 3.5 days; vs non-treated control; read-out: % decrease of serum cholesterol
Readout: inhibition in vivo at 20 mg/kg/day

Here are 5 compounds together with their reported answers.
COC(=O)CN(CC(O)COc1ccc(C(C)(C)C)cc1)c1ccccc1 (stereo not drawn): 12.4%
O=C(O)CN(CC(O)COc1ccc(Cl)cc1)c1ccccc1 (stereo not drawn): 28.8%
CCCOC(=O)CN(CC(O)COc1ccc(Cl)cc1)c1ccccc1 (stereo not drawn): 34.7%
CCOC(=O)C(C)(C)Oc1ccc(Cl)cc1 [clofibrate, reference compound]: 12.6%
COC(=O)CN(CC(O)COc1ccccc1Cl)c1ccccc1 (stereo not drawn): 21.5%

Please report inhibition in vivo at 20 mg/kg/day for the following compound: COC(=O)CN(CC(O)COc1ccc(Cl)cc1)c1ccccc1 (stereo not drawn) 23.4%

====

Kindly supply the reported inhibition ratio (hypotriglyceridemic effect) values for the records listed here.
System: blood triglyceride
Assay: Blood triglyceride lowering in carbohydrate (fructose) induced hypertriglyceridemia of fructose loaded 9 week-old male rats
Assay type: in vivo, rat
Settings: 10 mg/kg/day oral, 3 days; vs fructose loaded control
One number for each entry, in %.

Here are 3 compounds together with their reported answers.
CCOC(=O)C(C)(C)Oc1ccc(Cl)cc1 [clofibrate, reference compound]: -16.6
COC(=O)CN(CC(O)COc1ccc(Cl)cc1)c1ccccc1 (stereo not shown) [Compound 4]: 46.5
CCCOC(=O)CN(CC(O)COc1ccc(Cl)cc1)c1ccccc1 (stereo not shown) [Compound 6]: 55.9

Please report inhibition ratio (hypotriglyceridemic effect) for the following compound: CCCCOC(=O)CN(CC(O)COc1ccc(Cl)cc1)c1ccccc1 (stereo not shown) [Compound 10] 48.5
